Entries and their cytotoxicity at 4 h, 100 µM values follow.
Experiment: Acute toxicity in human DU145 cells assessed as cell death/lysis at 100 uM after 4 hrs by LDH assay
Format: cell-based, DU-145
Settings: read-out: INH
Peptide text beside a SMILES is read from it. * marks the point of attachment. X2 = N=C(N)NCCCN(CC(N)=O)N*; X1 = N=C(N)NC/C=C/CN*
Quantity: cytotoxicity at 4 h, 100 µM

Molecule | Quantity | Observed result
CC(=O)N[C@H](CC(C)C)C(=O)N[C@H](CC(C)C)C(=O)N[C@H](CC(C)C)C(=O)N[C@H](CC(C)C)C(=O)N[C@@H](CCCNC(=N)N)C(=O)N[C@H](C(=O)N[C@@H](CCCCN)C(=O)N[C@@H](CCCNC(=N)N)C(N)=O)C(C)C | cytotoxicity at 4 h, 100 µM | < 5%
CC(=O)N[C@@H](CC(C)C)C(=O)N[C@@H](CC(C)C)C(=O)N[C@@H](CC(C)C)C(=O)N[C@@H](CC(C)C)C(=O)N[C@@H](CCCNC(=N)N)C(=O)N[C@H](C(=O)N[C@@H](CCCCN)C(=O)NN(CCCNC(=N)N)CC(N)=O)C(C)C (Ac-LLLLRVK-X2) | cytotoxicity at 4 h, 100 µM | < 5%
CC(=O)N[C@@H](CC(C)C)C(=O)N[C@@H](CC(C)C)C(=O)N[C@@H](CC(C)C)C(=O)N[C@@H](CC(C)C)C(=O)N[C@@H](CCCNC(=N)N)C(=O)N[C@H](C(=O)N[C@@H](CCCCN)C(=O)NC/C=C/CNC(=N)N)C(C)C (Ac-LLLLRVK-X1) | cytotoxicity at 4 h, 100 µM | < 5%
CCCC[C@@H](NC(C)=O)C(=O)N[C@@H](CC(C)C)C(=O)N[C@@H](CC(C)C)C(=O)N[C@@H](CC(C)C)C(=O)N[C@@H](CCCNC(=N)N)C(=O)N[C@H](C(=O)N[C@@H](CCCCN)C(=O)N[C@@H](CCCNC(=N)N)C(N)=O)C(C)C | cytotoxicity at 4 h, 100 µM | < 5%
